# Test Conditions: human, serum
# reported Hepatotoxicity (moderate); entries follow

Compound: CN(C)CCC=C1c2ccccc2COc2ccccc21 [DOXEPIN]
Hepatotoxicity (moderate): 3
//
Compound: C[C@H]1O[C@H](O[C@H]2[C@H](O)[C@@H](O)[C@@H](O[C@H]3[C@H](O)[C@@H](O)C(O)O[C@@H]3CO)O[C@@H]2CO)[C@H](O)[C@@H](O)[C@@H]1N[C@H]1C=C(CO)[C@@H](O)[C@H](O)[C@H]1O (stereo partly drawn) [ACARBOSE]
Hepatotoxicity (moderate): 6
//
Compound: OC[C@H]1O[C@@H](n2cnc3c2NC=NC[C@H]3O)C[C@@H]1O [PENTOSTATIN]
Hepatotoxicity (moderate): 16
//
Compound: Cc1onc(-c2ccccc2Cl)c1C(=O)N[C@@H]1C(=O)N2[C@@H]1SC(C)(C)[C@@H]2C(=O)O [CLOXACILLIN]
Hepatotoxicity (moderate): 5
//
Compound: CCCCC1C(=O)NN(c2ccccc2)C1=O (stereo not drawn) [MOFEBUTAZONE]
Hepatotoxicity (moderate): 0
//
Compound: Cc1nc2n(c(=O)c1CCN1CCC(c3noc4cc(F)ccc34)CC1)CCCC2 [RISPERIDONE]
Hepatotoxicity (moderate): 4
//
Compound: O=C1NCCN1c1ncc([N+](=O)[O-])s1 [NIRIDAZOLE]
Hepatotoxicity (moderate): 2
//
Compound: CN1CCN(c2c(F)cc3c(=O)c(C(=O)O)cn(CCF)c3c2F)CC1 [FLEROXACIN]
Hepatotoxicity (moderate): 13

---

# Measurement Description: Highest frequency of acute liver toxicity observed during clinical trials, expressed as a percentage. [column '% AIGUE' in source]
# Test Conditions: human, Liver

Molecule: C1CNCCN1
Units Symbol: %
Hepatotoxicity (acute): 0
//
Molecule: O=C(O)c1cn(C2CC2)c2cc(N3CCNCC3)c(F)cc2c1=O
Units Symbol: %
Hepatotoxicity (acute): 0.2
//
Molecule: Nc1c2c(nc3ccccc13)CCCC2
Units Symbol: %
Hepatotoxicity (acute): 13.4
//
Molecule: CC(C)n1c(/C=C/C(O)CC(O)CC(=O)O)c(-c2ccc(F)cc2)c2ccccc21 (stereo not given)
Units Symbol: %
Hepatotoxicity (acute): 1.2
//
Molecule: CC1(C)S[C@@H]2[C@H](NC(=O)[C@H](N)c3ccc(O)cc3)C(=O)N2[C@H]1C(=O)O
Units Symbol: %
Hepatotoxicity (acute): 0
//
Molecule: O=C1Nc2ccc(Cl)cc2C(c2ccccc2)=NC1O (stereo not given)
Units Symbol: %
Hepatotoxicity (acute): 0
//
Molecule: CNCCCN1c2ccccc2CCc2ccccc21
Units Symbol: %
Hepatotoxicity (acute): 0
//
Molecule: CCOC(=O)C1=C(C)NC(C)=C(C(=O)OC)C1c1cccc(Cl)c1Cl (stereo not given)
Units Symbol: %
Hepatotoxicity (acute): 0
//
Molecule: CC(C)Cc1ccc(C(C)C(=O)O)cc1 (stereo not given)
Units Symbol: %
Hepatotoxicity (acute): 0
//
Molecule: CC(NC(C)(C)C)C(=O)c1cccc(Cl)c1 (stereo not given)
Units Symbol: %
Hepatotoxicity (acute): 0
//
Molecule: CN1C(C(=O)Nc2ccccn2)=C(O)c2sccc2S1(=O)=O
Units Symbol: %
Hepatotoxicity (acute): 0
//
Molecule: COc1ccc2cc([C@H](C)C(=O)O)ccc2c1
Units Symbol: %
Hepatotoxicity (acute): 1.1
//
Molecule: CCOC(=O)C1=C(COCCN)NC(C)=C(C(=O)OC)C1c1ccccc1Cl (stereo not given)
Units Symbol: %
Hepatotoxicity (acute): 0
//
Molecule: CCn1cc(C(=O)O)c(=O)c2cc(F)c(N3CCN(C)CC3)cc21
Units Symbol: %
Hepatotoxicity (acute): 0
//
Molecule: Cc1ncc([N+](=O)[O-])n1CCO
Units Symbol: %
Hepatotoxicity (acute): 0
//
Molecule: Cc1ccc(C(=O)c2ccc(CC(=O)O)n2C)cc1
Units Symbol: %
Hepatotoxicity (acute): 0
//
Molecule: Cc1cnc(NC(=O)C2=C(O)c3ccccc3S(=O)(=O)N2C)s1
Units Symbol: %
Hepatotoxicity (acute): 0
//
Molecule: N[C@@H]1[C@H]2CN(c3nc4c(cc3F)c(=O)c(C(=O)O)cn4-c3ccc(F)cc3F)C[C@@H]12
Units Symbol: %
Hepatotoxicity (acute): 0
//
Molecule: CO[C@H]1/C=C/O[C@@]2(C)Oc3c(C)c(O)c4c(c3C2=O)C2=NC3(CCN(CC(C)C)CC3)NC2=C(NC(=O)/C(C)=C\C=C\[C@H](C)[C@H](O)[C@@H](C)[C@@H](O)[C@@H](C)[C@H](OC(C)=O)[C@@H]1C)C4=O
Units Symbol: %
Hepatotoxicity (acute): 0
//
Molecule: CNCCC=C1c2ccccc2CCc2ccccc21
Units Symbol: %
Hepatotoxicity (acute): 0

---

# Test Conditions: human, serum
# reported Hepatotoxicity (acute); entries follow
Experimental Readout: Hepatotoxicity (acute)

Molecule: CC(C)=CCC1C(=O)N(c2ccccc2)N(c2ccccc2)C1=O
Recorded Result: 2
--
Molecule: O[C@H]1[C@H]2[C@H](O)CCCN2C[C@H]1O
Recorded Result: 1
--
Molecule: COc1ccc(CCN(C)CCCOc2ccc(S(=O)(=O)c3c(C(C)C)cn4ccccc34)cc2)cc1OC
Recorded Result: 0
--
Molecule: Nc1ccc(C(=O)[O-])cc1.[K+] [AMINOBENZOATE POTASSIUM]
Recorded Result: 1
--
Molecule: OC(CCCN1CCCCC1)(c1ccccc1)c1ccccc1
Recorded Result: 1
--
Molecule: COC(=O)C1=C(C)NC(C)=C(C(=O)O[C@H]2CCN(Cc3ccccc3)C2)[C@H]1c1cccc([N+](=O)[O-])c1
Recorded Result: 0
--
Molecule: COC(=O)Nc1nc2cc(C(=O)c3ccc(F)cc3)ccc2[nH]1
Recorded Result: 1
--
Molecule: CO/N=C(\C(=O)N[C@@H]1C(=O)N2C(C(=O)O)=C(CSc3nnnn3C)CS[C@H]12)c1csc(N)n1
Recorded Result: 1
--
Molecule: CCC1=C(C)CN(C(=O)NCCc2ccc(S(=O)(=O)NC(=O)N[C@H]3CC[C@H](C)CC3)cc2)C1=O [GLIMEPIRIDE]
Recorded Result: 2
--
Molecule: C#C[C@]1(O)CC[C@H]2[C@@H]3CCC4=CC(=O)CCC4=C3C=C[C@@]21CC
Recorded Result: 0
--
Molecule: CC[C@H]1OC(=O)[C@H](C)[C@@H](O[C@H]2C[C@@](C)(OC)[C@@H](O)[C@H](C)O2)[C@H](C)[C@@H](O[C@@H]2O[C@H](C)C[C@H](N(C)C)[C@H]2O)[C@](C)(OC)C[C@@H](C)C(=O)[C@H](C)[C@@H](O)[C@]1(C)O
Recorded Result: 13
--
Molecule: O=P1(N(CCCl)CCCl)NCCCO1 (centres undefined) [CYCLOPHOSPHAMIDE ANHYDROUS]
Recorded Result: 18
--
Molecule: CCC/C=C/C=C/C(=O)O[C@H]1/C(=C/C(=O)OC)C[C@H]2C[C@H]([C@@H](C)O)OC(=O)C[C@H](O)C[C@@H]3C[C@H](OC(C)=O)C(C)(C)[C@](O)(C[C@@H]4C/C(=C/C(=O)OC)C[C@H](/C=C/C(C)(C)[C@]1(O)O2)O4)O3
Recorded Result: 1
--
Molecule: CC(=N)N1CC[C@H](SC2=C(C(=O)O)N3C(=O)[C@H]([C@@H](C)O)[C@H]3C2)C1.O=C(O)CCNC(=O)c1ccccc1
Recorded Result: 1

---

# reported Hepatotoxicity (cytolytic); entries follow
# Test Conditions: human

Molecule: Sc1ncnc2[nH]ncc12 [TISOPURINE]
Hepatotoxicity (cytolytic): 1
--
Molecule: CN1CCc2cccc3c2[C@H]1Cc1ccc(O)c(O)c1-3 [APOMORPHINE]
Hepatotoxicity (cytolytic): 0
--
Molecule: O=c1[nH]c(=O)n([C@@H]2O[C@H](CO)[C@@H](O)[C@@H]2F)cc1I [FIALURIDINE]
Hepatotoxicity (cytolytic): 0
--
Molecule: C#C[C@]1(O)CC[C@H]2[C@@H]3CCC4=Cc5oncc5C[C@]4(C)[C@H]3CC[C@@]21C [DANAZOL]
Hepatotoxicity (cytolytic): 6
--
Molecule: C[C@]12COC(=O)C[C@@H]1CC[C@@H]1[C@@H]2CC[C@@]2(C)[C@H]1CC[C@]2(C)O [OXANDROLONE]
Hepatotoxicity (cytolytic): 0
--
Molecule: C[S+](CC[C@H](N)C(=O)[O-])C[C@H]1O[C@@H](n2cnc3c(N)ncnc32)[C@H](O)[C@@H]1O (stereo partly drawn) [ADEMETIONINE]
Hepatotoxicity (cytolytic): 1
--
Molecule: CCNNC(=O)[C@@H]1[C@H](c2cc(OC)c(OC)c(OC)c2)c2cc3c(cc2[C@H](O)[C@H]1CO)OCO3 [MITOPODOZIDE]
Hepatotoxicity (cytolytic): 0
--
Molecule: Cn1nnc2c(C(N)=O)ncn2c1=O [TEMOZOLOMIDE]
Hepatotoxicity (cytolytic): 1

---

# reported Hepatotoxicity (acute); entries follow
# Measurement Description: Highest frequency of acute liver toxicity observed during clinical trials, expressed as a percentage. [column '% AIGUE' in source]
# Test Conditions: human
Experimental Readout: Hepatotoxicity (acute)

Compound: Cc1cc2c(s1)Nc1ccccc1N=C2N1CCN(C)CC1 [OLANZAPINE]
Recorded Result: 0%
--
Compound: CN1CCN(C2=Nc3cc(Cl)ccc3Nc3ccccc32)CC1 [CLOZAPINE]
Recorded Result: 1%
--
Compound: COc1cc(NCc2ccc3nc(N)nc(N)c3c2C)cc(OC)c1OC [TRIMETREXATE]
Recorded Result: 8%
--
Compound: COc1ccc2cc(CCC(C)=O)ccc2c1 [NABUMETONE]
Recorded Result: 0%
--
Compound: CCc1[nH]c(=O)[nH]c1C(=O)c1ccncc1 [PIROXIMONE]
Recorded Result: 0%
--
Compound: Cc1ccc(O)c2ncccc12 [TILIQUINOL]
Recorded Result: 0%
--
Compound: C[C@](N)(Cc1ccc(O)c(O)c1)C(=O)O [METHYLDOPA]
Recorded Result: 1.3%
--
Compound: CC[C@H]1[C@@H]2C[C@H]3[C@@H]4N(C)c5ccccc5[C@]45C[C@@H]([C@@H]2[C@H]5O)N3[C@@H]1O [AJMALINE]
Recorded Result: 0.1%
--
Compound: COc1ccc2[nH]cc(CCNC(C)=O)c2c1 [MELATONIN]
Recorded Result: 0%
--
Compound: Cc1ccc(O)c([C@H](CCN(C(C)C)C(C)C)c2ccccc2)c1 [TOLTERODINE]
Recorded Result: 0%
--
Compound: CO/N=C(\C(=O)N[C@@H]1C(=O)N2C(C(=O)[O-])=C(C[N+]34CCC(C(N)=O)(CC3)CC4)CS[C@H]12)c1nsc(N)n1 [CEFCLIDIN]
Recorded Result: 0%
--
Compound: COC(=O)C[C@](O)(CCCC(C)(C)O)C(=O)O[C@@H]1C(OC)=C[C@]23CCCN2CCc2cc4c(cc2[C@H]13)OCO4 [OMACETAXINE MEPESUCCINATE]
Recorded Result: 0%
--
Compound: CCC(C)(C)NCC(O)COc1ccccc1C(=O)CCc1ccccc1 (stereo unspecified) [DIPRAFENONE]
Recorded Result: 1.6%
--
Compound: C[C@@H](O)[C@H]1C(=O)N2C(C(=O)[O-])=C(SC3Cn4cnc[n+]4C3)[C@H](C)[C@H]12 (stereo partly specified) [BIAPENEM]
Recorded Result: 0%
--
Compound: O=[As](O)(O)c1ccc(NCCNc2ccc([As](=O)(O)O)cc2)cc1 [DIFETARSONE]
Recorded Result: 0%
--
Compound: Cc1cc(C)cc(OCC2CNC(=O)O2)c1 (stereo unspecified) [METAXALONE]
Recorded Result: 0%
--
Compound: Nc1ncc2ncn(COCCO)c2n1 [DESCICLOVIR]
Recorded Result: 0%
--
Compound: Nc1nc(Cl)nc2c1ncn2[C@H]1C[C@H](O)[C@@H](CO)O1 [CLADRIBINE]
Recorded Result: 9.1%
--
Compound: NC(N)=Nc1nc(CSCCN/C=N/S(=O)(=O)c2ccc(Br)cc2)cs1 [EBROTIDINE]
Recorded Result: 0%
--
Compound: CCCCN1CCCCC1C(=O)Nc1c(C)cccc1C (stereo unspecified) [BUPIVACAINE]
Recorded Result: 0%
--
Compound: C=CCC1(CC(C)C)C(=O)NC(=O)NC1=O [BUTALBITAL]
Recorded Result: 0%
--
Compound: CCN(CC)CCCC(C)Nc1ccnc2cc(Cl)ccc12 (stereo unspecified) [CHLOROQUINE]
Recorded Result: 0%
--
Compound: CN1C(CSCC(F)(F)F)Nc2cc(Cl)c(S(N)(=O)=O)cc2S1(=O)=O (stereo unspecified) [POLYTHIAZIDE]
Recorded Result: 0%
--
Compound: COC(=O)C1=C(C#N)NC(C)=C(C(=O)OC(C)C)C1c1cccc([N+](=O)[O-])c1 (stereo unspecified) [NILVADIPINE]
Recorded Result: 0%
--
Compound: CC(C)(Oc1ccc(CCNC(=O)c2ccc(Cl)cc2)cc1)C(=O)O [BEZAFIBRATE]
Recorded Result: 0%
--
Compound: CCN(CC)CCn1c(-c2ccccc2)noc1=N [IMOLAMINE]
Recorded Result: 0%
--
Compound: CC1(C)S[C@@H]2[C@H](NC(=O)[C@H](N)c3ccc(O)cc3)C(=O)N2[C@H]1C(=O)O.O=C(O)[C@H]1/C(=C/CO)O[C@@H]2CC(=O)N21
Recorded Result: 0.3%
--
Compound: CCOC(=O)CN[C@@H](C(=O)N1CC[C@H]1C(=O)NCc1ccc(/C(N)=N\O)cc1)C1CCCCC1 [XIMELAGATRAN]
Recorded Result: 6.8%
--
Compound: CC(C)CCOc1ccc(NC(=S)Nc2ccc(OCCC(C)C)cc2)cc1 [TIOCARLIDE]
Recorded Result: 0.4%
--
Compound: CC(=O)N[C@H]1[C@H]([C@H](O)[C@H](O)CO)OC(C(=O)O)=C[C@@H]1N=C(N)N [ZANAMIVIR]
Recorded Result: 0%
--
Compound: Nc1nc2[nH]cc(CCc3ccc(C(=O)N[C@@H](CCC(=O)O)C(=O)O)cc3)c2c(=O)[nH]1 [PEMETREXED]
Recorded Result: 0%
--
Compound: CO/N=C1\CN(c2nc3c(cc2F)c(=O)c(C(=O)O)cn3C2CC2)CC1CN (stereo unspecified) [GEMIFLOXACIN]
Recorded Result: 0%
--
Compound: O=C1CCC(N2C(=O)c3ccccc3C2=O)C(=O)N1 (stereo unspecified) [THALIDOMIDE]
Recorded Result: 0%
--
Compound: CCOC(=O)C(C)(C)Oc1ccc(Cl)cc1 [CLOFIBRATE]
Recorded Result: 0%
--
Compound: CN(C)S(=O)(=O)c1ccc2c(c1)N(CCCN1CCC(CCO)CC1)c1ccccc1S2 [PIPOTIAZINE]
Recorded Result: 0%
--
Compound: CN1CCN(C(=O)OC2c3nccnc3C(=O)N2c2ccc(Cl)cn2)CC1 (stereo unspecified) [ZOPICLONE]
Recorded Result: 0%
